Assay: gradient 5% acetonitrile 3 min, to 50% in 2 min, to 85% in 15 min, held 3 min, 100 µL/min
Conditions: column: Zorbax Extend-C18 2.1 x 50 mm; eluents: water / acetonitrile, 0.1% formic acid
RP-LC retention time listing for selected molecules.
Just the number in s, nothing appended.

Below, 2 molecules whose answers are already recorded.
CNC(=O)c1cc(-c2ccccc2)n(C)c1C    591
CC(C)c1cc(N2CCN(C(=O)c3ccc4c(c3)OCO4)CC2)nc2nncn12    610

Query string: What measured RP-LC retention time goes with O=C(NCc1cccs1)c1coc(NC(=O)c2ccco2)n1 ?
Result string: 632

Query string: What do we get for COCCN1C(=O)CCc2cc(NS(=O)(=O)c3c(C)cccc3Cl)ccc21 ?
Result string: 795

Query string: Another molecule: Cc1cccc(NS(=O)(=O)c2cn(CC(C)C)c3ncccc23)c1
Result string: 960

Query string: Proceed to O=C(NC1CCN(c2ccccc2)C1=O)c1ccc(Br)o1 (centres undefined)
Result string: 773

Query string: What do you get for COc1ccc(OC)c(NS(=O)(=O)c2cc(-c3cc(C(F)(F)F)on3)sc2C)c1 ?
Result string: 1130

Query string: Same question for Cc1ccc(NC(=O)Cn2nc3cc(C)nc(-c4ccccc4)n3c2=O)c(C)c1 please.
Result string: 832

Value source: the METLIN SMRT retention time set (Domingo-Almenara et al. 2019)
